# Test system: T1, GST-LIM-RIL PDZ domain 1 (Homo sapiens (Human)), P50479
# T1 chain: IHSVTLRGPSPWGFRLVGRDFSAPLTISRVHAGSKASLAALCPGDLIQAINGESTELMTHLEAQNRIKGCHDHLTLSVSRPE
# Protocol details: G' assay; also: key of the grades not given here
Quantity: Classification (A450 class)
Give just the number in A450 class; leave the unit off.

QATSRNGHSARQHVVADTEL (modifications not checked) [CD34]	1
LASKSAEEGKQIPDSLSTDL (modifications not checked) [DOCK2]	1
QISPGGLEPPSEKHFRETEV (modifications not checked) [TAX]	1
PYSELNYETSHYPASPDSWV (modifications not checked) [catenin - delta 2]	2
YSATYSELEDPGEMSPPIDL (modifications not checked) [FceRlb]	1
TQGFPGPATWRRISSLESEV (modifications not checked) [NMDA Glutamate Receptor 2C (cysteine-free)]	5

Consider the record given below.
Form field Classification, entry VPGALDYAAFSSALYGESDL (modifications not checked) [a-actinin 2] : 5
